- method: NCI Yeast Anticancer Drug Screen. Data for the bub3 strain (AID 167)
- measurement parameters: S. cerevisiae bub3 mutant strain, at 50.0 µM (retest, dose inferred, filed as 5.0), stronger effect = higher value
About 79,000 compounds went through this panel and 15% of them were active in at least one assay; those are over-represented in the sample as a whole.
Task for the reader: assign each of the following compounds its reported growth inhibition.
Give a bare numeral; the unit % is implied.

Consider the compound `CN(N=O)N1C(=O)SCC(c2ccccc2)(c2ccccc2)C1=O` and give its measured growth inhibition.
70

Moving on to the next compound: `CCCCCCCCCCCC1=C(O)C(=O)C=C(O)C1=O`
89

Moving on to the next compound: `CCCCCCCCCC/C=C\C(=O)O`
73

Moving on to the next compound: `O=C(CCCN1CCC(O)(c2ccc(Cl)cc2)CC1)c1ccc(F)cc1`
99

Moving on to the next compound: `CN(C)CCOc1ccc2c(c1)C/C(=C/c1ncc([N+](=O)[O-])n1C)C2=O`
6

Moving on to the next compound: `CC/C(=C(\c1ccccc1)c1ccc(OCCN(C)C)cc1)c1ccccc1`
92

Moving on to the next compound: `CC(C)c1cc(C(C)C)c(O)c(C([O-])[O-])c1.CC(C)c1cc(C(C)C)c(O)c(C([O-])[O-])c1.CC(C)c1cc(C(C)C)c(O)c(C([OH2+])[OH2+])c1.CC(C)c1cc(C(C)C)c(O)c(C([OH2+])[OH2+])c1.[Cu+2].[Cu+2].[OH3+].[OH3+]`
1

Moving on to the next compound: `CN1Cc2ccccc2/C=C\c2ccccc21`
87

Moving on to the next compound: `Cc1nn(-c2cc(Cl)ccc2[N+](=O)[O-])c(C)c1Cl`
-6

Moving on to the next compound: `COc1ccccc1/C=C1\Sc2scc(-c3cccc([N+](=O)[O-])c3)[n+]2C1=O`
95

The measured values listed here are drawn from PubChem BioAssay (NCI).
